I'd appreciate it if you could supply INHIBITION values for the items below.
# System: Plasmodium berghei
# method-description: Screen against P. berghei liver stage (PbLuc), transformed with Luciferase, at 10uM
# Assay type: functional, HepG2
# assay-setup: tested at 10 uM
The campaign covered roughly 69,000 compounds. About 8,600 (12%) showed an effect of 50% or more. This excerpt belongs to a sample that is enriched for strong results.
Supply the numeric figure in %, leaving out any unit text.

Exercise: Specify reported INHIBITION for the compound shown: CC(C)COCC(NC(=O)c1ccncc1)c1ccco1 (centres undefined)
Solution: 28.8

Exercise: Specify reported INHIBITION for the compound shown: O=C(c1cnc(C2CC2)s1)N1CCCC1Cn1cccn1 (centres undefined)
Solution: 8.64

Exercise: Specify reported INHIBITION for the compound shown: O=C(Nc1ccc(-n2ccc(C(=O)O)n2)cc1)c1ccccc1
Solution: 39.5

Exercise: Specify reported INHIBITION for the compound shown: Cc1nn(C)c2nc(N3CCC(C(O)c4nccn4C)CC3)sc12 (centres undefined)
Solution: 12.8

Exercise: Specify reported INHIBITION for the compound shown: O=C(O)c1cnc(-c2cccc3c2CCNC3)c(Cl)c1
Solution: 2.15

Exercise: Specify reported INHIBITION for the compound shown: O=C(Cc1csc(Cc2ccccn2)n1)NCCCN1CCCC1=O
Solution: 17.5

Exercise: Specify reported INHIBITION for the compound shown: COCCOc1cccc(C(=O)N2CCCCC2c2nccs2)c1 (centres undefined)
Solution: -31.5

Exercise: Specify reported INHIBITION for the compound shown: CCn1cnnc1CNC(=O)N1CCN(c2ccccc2O)CC1
Solution: 36.1

Exercise: Specify reported INHIBITION for the compound shown: Cc1csc(C2CCCCN2C(=O)c2cc(C)n(C)n2)n1 (centres undefined)
Solution: 17.5

Exercise: Specify reported INHIBITION for the compound shown: CC(C)Cc1ncc2c(n1)CN(c1nc3ccccc3cc1CO)C2
Solution: 33.9

Exercise: Specify reported INHIBITION for the compound shown: O=C(Cn1nc(-c2ccc(F)cc2)oc1=O)NCCc1ccccc1
Solution: 27.6

Exercise: Specify reported INHIBITION for the compound shown: CC(CN1CCOCC1)NCC1CCN(c2cnn(C)c(=O)c2)CC1 (centres undefined)
Solution: 33.5

Exercise: Specify reported INHIBITION for the compound shown: Cn1nc2c(cc1=O)CN(Cc1coc(-c3cccc(F)c3)n1)CC2
Solution: 9.54

Exercise: Specify reported INHIBITION for the compound shown: C=c1nc(NC)sc1=C1NC(c2c(C)ncc3c2CCNC3)=NO1
Solution: 39.3

Exercise: Specify reported INHIBITION for the compound shown: CC(C)(N)c1nc(C(F)F)cc(=O)[nH]1
Solution: -4.35

Exercise: Specify reported INHIBITION for the compound shown: CN1CCCC(Cc2cncc(C(=O)NC3CC3)c2)C1 (centres undefined)
Solution: 8.72

Exercise: Specify reported INHIBITION for the compound shown: O=C(N1CCCC1)N1CCN(Cc2cccnc2)c2ncccc2C1
Solution: 31.2

Exercise: Specify reported INHIBITION for the compound shown: Cc1ccc(NC2CCN(C(=O)CCc3cscn3)CC2)nn1
Solution: 7.12

Exercise: Specify reported INHIBITION for the compound shown: O=C(NCCCO)C1(CC2CC(c3ccc(F)cc3)=NO2)CCOCC1 (centres undefined)
Solution: 36

Exercise: Specify reported INHIBITION for the compound shown: O=S1(=O)c2cccnc2OC(Cc2ccccc2)CN1CC1CC1 (centres undefined)
Solution: 24.5

Exercise: Specify reported INHIBITION for the compound shown: Cn1ncc(N2CCC(CNC(=O)[C@@H](N)c3ccccc3)CC2)cc1=O
Solution: -12.4

Exercise: Specify reported INHIBITION for the compound shown: CCc1c(C)nc2n(c1=O)CC(C(=O)NCc1cccs1)CS2 (centres undefined)
Solution: 35.8

Exercise: Specify reported INHIBITION for the compound shown: O=C(NCCO)C1(CC2CC(c3ccc(F)cc3)=NO2)CCOCC1 (centres undefined)
Solution: 22.8

Exercise: Specify reported INHIBITION for the compound shown: O=C(C1CCCCC1)N1CCCC([C@@H]2C[C@H](C(F)F)n3ncnc3N2)C1 (some centres undefined)
Solution: 25.26
